target: Scavenger receptor class B member 1 (Mus musculus); experiment: inhibitors of SR-BI mediated HDL lipid uptake, primary screen, ldlA[mSR-BI] cells, fluorescence, single point (AID 488896); details: ldlA[mSR-BI] CHO cells, DiI-HDL uptake fluorescence, 3 h; at 12.5 µM; hits give high values;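 also: 0% = median of neutral control wells and 100% = median of positive control wells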
Screen size: about 320,000 compounds; about 3,100 (0.97%) were called active. What follows is part of a selection rich in actives, with near analogues and random picks from the rest.
property-name: inhibition

molecule	data-value
CCC(C)(O)C(=O)OC1C(=O)OC2CC3C(C)=CC(=O)C(O)C3(C)C3C4(O)OCC23C1C(C)C4O (configuration not stated)	-10.3% (inactive)
CC12CCC(O)CC1CCC1C2CCC2(C)C(C(=O)CC(O)C(F)(F)F)CCC12 (configuration not stated)	13.2% (inactive)
COC1C(O)C(C)OC(OC2CCC3(C=O)C(CCC4C3CCC3(C)C(C5=CC(=O)OC5)CCC43O)C2)C1O (configuration not stated)	0.038% (inactive)
CCOP(=O)(OCC)C(NC(=O)c1ccc(OC)cc1)C(Cl)(Cl)Cl (configuration not stated)	6.36% (inactive)
CC1=CC(=Cc2sc3ccccc3[n+]2C)C=C(C)O1	-1% (inactive)
CN(C)CC1Oc2ccccc2OC1(O)c1ccccc1 (configuration not stated)	1.39% (inactive)
CC(=O)c1ccc(OC(NC(=O)Cc2ccccc2)C(Cl)(Cl)Cl)cc1 (configuration not stated)	92.8% (active)
